target: human recombinant HDAC6 (Homo sapiens); construct: purchased Calbiochem 382180; test: HDAC enzyme activity inhibition assay (HDAC6, fluorimetric kit); assay type: biochemical; conditions: HDAC6 versus HDAC1
ENDPOINT: HDAC6 selectivity (fold)
The reply should be a number in fold, with the unit left off.

Record excerpt, results attached:
{"MOLECULE SMILES": "CC(=O)N1CC(C(=O)N(Cc2ccc(-c3nnc(C(F)(F)F)o3)cc2)c2ccccc2)C1", "HDAC6 selectivity (fold)": 144}
{"MOLECULE SMILES": "O=C(CN1CCC[C@@H]1CO)N(Cc1ccc(-c2nnc(C(F)F)o2)cc1F)c1ccc(F)c(Cl)c1", "HDAC6 selectivity (fold)": 1429}
{"MOLECULE SMILES": "CC(C)C(=O)N1CCC(C(=O)N(Cc2ccc(-c3nnc(C(F)(F)F)o3)cc2)c2ccccc2)CC1", "HDAC6 selectivity (fold)": 452}

Here is the next item to consider.
Req: Provide HDAC6 selectivity (fold) value for the following molecule: `CC(C)C(=O)N1CC(C(=O)N(Cc2ccc(-c3nnc(C(F)(F)F)o3)cc2)c2ccccc2)C1`
Resp: 1111

---

Biological target: human recombinant HDAC6 (Homo sapiens)
Sequence (Q9UBN7 1-1215): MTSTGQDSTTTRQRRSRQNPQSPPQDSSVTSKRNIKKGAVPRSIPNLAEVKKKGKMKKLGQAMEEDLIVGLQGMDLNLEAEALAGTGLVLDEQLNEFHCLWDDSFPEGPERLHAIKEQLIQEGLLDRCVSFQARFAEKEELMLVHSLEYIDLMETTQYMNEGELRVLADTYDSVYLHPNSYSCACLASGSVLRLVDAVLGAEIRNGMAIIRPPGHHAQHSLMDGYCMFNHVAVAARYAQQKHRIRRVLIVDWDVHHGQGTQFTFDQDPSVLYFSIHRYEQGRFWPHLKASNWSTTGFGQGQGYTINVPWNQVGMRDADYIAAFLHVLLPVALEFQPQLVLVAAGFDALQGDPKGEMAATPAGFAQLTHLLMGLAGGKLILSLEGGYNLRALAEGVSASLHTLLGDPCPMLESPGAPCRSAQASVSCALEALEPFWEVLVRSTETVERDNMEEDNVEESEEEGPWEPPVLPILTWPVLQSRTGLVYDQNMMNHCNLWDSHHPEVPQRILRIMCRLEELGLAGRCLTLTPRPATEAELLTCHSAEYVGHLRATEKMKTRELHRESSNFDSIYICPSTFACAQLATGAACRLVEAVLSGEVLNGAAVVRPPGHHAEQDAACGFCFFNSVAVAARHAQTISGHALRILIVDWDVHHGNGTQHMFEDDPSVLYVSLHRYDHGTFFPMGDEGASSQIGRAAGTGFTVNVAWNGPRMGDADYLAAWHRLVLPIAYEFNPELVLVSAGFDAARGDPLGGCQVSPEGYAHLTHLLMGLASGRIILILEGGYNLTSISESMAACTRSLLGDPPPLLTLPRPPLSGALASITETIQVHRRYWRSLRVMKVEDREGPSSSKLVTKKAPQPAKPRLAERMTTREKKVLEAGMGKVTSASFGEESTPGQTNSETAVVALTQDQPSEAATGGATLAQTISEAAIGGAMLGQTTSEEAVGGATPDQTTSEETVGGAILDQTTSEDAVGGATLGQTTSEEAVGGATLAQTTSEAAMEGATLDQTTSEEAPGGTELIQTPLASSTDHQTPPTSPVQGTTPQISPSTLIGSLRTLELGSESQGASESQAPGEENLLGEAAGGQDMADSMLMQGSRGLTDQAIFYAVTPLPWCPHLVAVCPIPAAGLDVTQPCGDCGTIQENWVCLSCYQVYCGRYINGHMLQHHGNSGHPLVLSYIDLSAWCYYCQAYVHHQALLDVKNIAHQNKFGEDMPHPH
Experiment: HDAC enzyme activity inhibition assay (HDAC6, fluorimetric kit)
Settings: same protocol as the HDAC1 test
ENDPOINT: pIC50
Please keep in mind that pIC50 is minus log10 of the molar concentration; only the number is needed.

Example entries begin here.
{"COMPOUND": "Cl.O=C(C1CNC1)N(Cc1ccc(-c2nnc(C(F)(F)F)o2)cc1)c1ccccc1 [Compound 11136, hydrochloride]", "READOUT NUMBER": 6.69}
{"COMPOUND": "CC(C)C(=O)N1CC(C(=O)N(Cc2ccc(-c3nnc(C(F)F)o3)cc2F)c2ccccc2)C1", "READOUT NUMBER": 7.49}
{"COMPOUND": "CC(=O)N1CC(C(=O)N(Cc2ccc(-c3nnc(C(F)(F)F)o3)cc2F)c2ccccc2)C1", "READOUT NUMBER": 7.24}

Req: For the compound `CN1CC(C(=O)N(Cc2ccc(-c3nnc(C(F)(F)F)o3)cc2)c2ccccc2)C1` , give its reported pIC50.
Resp: 6.55
